- Tested on: P. vulgatus RND KO;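 also: active when median AUC fell below 0.1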
- PROCEDURE_TEXT: growth AUC normalised to DMSO control (median) (fraction of control); higher = less growth inhibition, active = hit call of the paper
- RECORDED_CONDITIONS: 20 µM
Structures can show the parent of a compound that is named as a salt.
READOUT_KIND: growth AUC normalised to DMSO control
Simply state the number, no unit and no words.

Reference set, count: 5
MOLECULE | growth AUC normalised to DMSO control
CC(C)=CCOc1ccc(/C=C/C(=O)c2ccc(OCC=C(C)C)cc2OCC(=O)O)cc1 | 0.914
Cc1cccc(N(C)C(=S)Oc2ccc3ccccc3c2)c1 [Tolnaftate] | 1
O=C(O)c1cc(=O)[nH]c(=O)[nH]1 | 0.976
CC(=O)Nc1nnc(S(N)(=O)=O)s1 [Acetazolamide] | 0.995
CCOC(=O)[C@H](CCc1ccccc1)N[C@H]1CCc2ccccc2N(CC(=O)O)C1=O [Benazepril hydrochloride] | 1

# context switch: different molecule, same growth AUC normalised to DMSO control
Look up growth AUC normalised to DMSO control of CCCCOCCOCCOCc1cc2c(cc1CCC)OCO2 [Piperonyl butoxide] and report it.
1.08

* * *

// growth AUC normalised to DMSO control lookup, one value per entry
- Test system: Vibrio cholerae
- PROCEDURE_TEXT: growth AUC normalised to DMSO control (fraction of control); higher = less growth inhibition, active = hit call of the paper
- RECORDED_CONDITIONS: 20 µM
Where a name gives a salt, the structure may show the parent alone.

Reference set, count: 3
MOLECULE | TARGET | READOUT_KIND | VAL
Cc1ncc(CO)c(CO)c1O [Pyridoxine hydrochloride] | Vibrio cholerae | growth AUC normalised to DMSO control | 0.996 (inactive)
C[C@H]1C[C@H]2[C@@H]3CCC4=CC(=O)C=C[C@]4(C)[C@@]3(F)[C@@H](O)C[C@]2(C)[C@@]1(O)C(=O)CO [Betamethasone] | Vibrio cholerae | growth AUC normalised to DMSO control | 0.979 (inactive)
CC1(C)O[C@@H]2C[C@H]3[C@@H]4C[C@H](F)C5=CC(=O)C=C[C@]5(C)[C@H]4[C@@H](O)C[C@]3(C)[C@]2(C(=O)CO)O1 [Flunisolide] | Vibrio cholerae | growth AUC normalised to DMSO control | 1.06 (inactive)

Look up Vibrio cholerae data: growth AUC normalised to DMSO control of CC(=O)O[C@]1(C(C)=O)CC[C@H]2[C@@H]3C=C(Cl)C4=CC(=O)CC[C@]4(C)[C@H]3CC[C@@]21C [Chlormadinone acetate] , then report it.
1 (inactive)

Look up Vibrio cholerae data: growth AUC normalised to DMSO control of Cc1c(-c2ccccc2)oc2c(C(=O)OCCN3CCCCC3)cccc2c1=O [Flavoxate hydrochloride] , then report it.
1.01 (inactive)

* * *

- System: Salmonella enterica typhimurium
- PROCEDURE_TEXT: growth AUC normalised to DMSO control (fraction of control); higher = less growth inhibition, active = hit call of the paper
- RECORDED_CONDITIONS: 20 µM
Counter-ions that a name gives are not always drawn.
// growth AUC normalised to DMSO control lookup, one value per entry
Simply state the number, no unit and no words.

Reference set, count: 5
COMPOUND | growth AUC normalised to DMSO control
c1cnc(N2CCN(Cc3ccc4c(c3)OCO4)CC2)nc1 | 1
COc1cc(-c2ccc(=O)[nH]n2)ccc1OC(F)F | 0.99
CN(C)CC/C=C1\c2ccccc2CSc2ccccc21 [Dosulepin hydrochloride] | 0.992
CCCCC(CC)CN1CN(CC(CC)CCCC)CC(C)(N)C1 (stereo unspecified) | 1.04
C[C@@H]1C[C@H]2[C@@H]3C[C@H](F)C4=CC(=O)C=C[C@]4(C)[C@@]3(Cl)[C@@H](O)C[C@]2(C)[C@H]1C(=O)COC(=O)C(C)(C)C [Clocortolone pivalate] | 1.03

# context switch: different compound, same growth AUC normalised to DMSO control
Look up growth AUC normalised to DMSO control of CC(C)(S)C(N)C(=O)O (racemic) and report it.
0.993
